- Test system: SW480
- Procedure details: Antiproliferative activity against human SW480 cells after 48 hrs by MTT assay
- Type: functional, cell-based
- Stated conditions: SW480, 48 h
Kindly state pIC50 for each of the entries shown.
Just so you know, pIC50 here is -log10 of the concentration in molar units; reply with that number alone.

Enquiry: Give pIC50 for O=c1cc(-n2cc(COc3ccc(Br)cc3)nn2)c2cc(Br)ccc2o1
Return: 5.88

Enquiry: Output pIC50 of O=c1cc(-n2cc(-c3ccccc3)nn2)c2cc(Br)ccc2o1
Return: 5.18

Enquiry: Determine from records and report pIC50 for COC(=O)c1ccccc1OCc1cn(-c2cc(=O)oc3ccc(Br)cc23)nn1
Return: 4.69

Enquiry: Input COc1cccc2c1C(=O)c1c(O)c3c(c(O)c1C2=O)C[C@@](O)(C(=O)CO)C[C@@H]3O[C@H]1C[C@H](N)[C@H](O)[C@H](C)O1 , output reported pIC50.
Return: 5.61

Enquiry: Given the compound O=c1cc(-n2cc(COc3ccccc3)nn2)c2cc(Br)ccc2o1 , write its reported pIC50.
Return: 5.30

Enquiry: Dear colleague, please send me the reported pIC50 for COc1ccc2c(-n3cc(COc4ccc(F)cc4)nn3)cc(=O)oc2c1 when you can.
Return: 5.70

Enquiry: Tell us which pIC50 value is on record for CS(=O)(=O)Oc1ccc2c(-n3cc(COc4ccccc4)nn3)cc(=O)oc2c1
Return: 4.97

Enquiry: State its pIC50: COc1ccc(OCCN2CCN(c3cc(=O)oc4ccccc34)CC2)cc1
Return: 4.46

Enquiry: Report pIC50 for O=c1cc(-n2cc(COc3ccc(F)cc3)nn2)c2ccccc2o1
Return: 5.42

* * *

- System: SW480
- Procedure details: Antiproliferative activity against human SW480 cells after 48 hrs by MTT assay
- Type: functional, cell-based
- Stated conditions: SW480, 48 h
Kindly supply the reported IC50 values for the records listed here.

Enquiry: Identify measured IC50 associated with COc1ccc(CN2CCN(c3cc(=O)oc4ccccc34)CC2)cc1
Return: > 50 µM

Enquiry: Please report the measured IC50 for COc1cc(CN2CCN(c3cc(=O)oc4ccccc34)CC2)ccc1O
Return: > 50 µM

Enquiry: Return the recorded IC50 value; entry: O=c1cc(N2CCN(Cc3ccccc3)CC2)c2ccccc2o1
Return: > 50 µM

* * *

- Test system: MCF7
- Procedure details: Antiproliferative activity against human MCF7 cells after 48 hrs by MTT assay
- Format: functional, cell-based
- Stated conditions: MCF7, 48 h
Observable: IC50 (µM)
Express the result in µM but write the number alone.

Enquiry: Note IC50 for the compound shown: O=[N+]([O-])c1cnc2ccc(Br)cc2c1-n1cc(CSc2ccccc2)nn1
Return: 22.7

Enquiry: Please give measured IC50 of the following entry: O=c1cc(-n2cc(COc3ccc(F)cc3)nn2)c2cc(Br)ccc2o1
Return: 7

Enquiry: Provide one value: measured IC50 of COc1ccc2c(-n3cc(COc4ccc(F)cc4)nn3)cc(=O)oc2c1
Return: 5.89

Enquiry: Answer with reported IC50 of O=c1cc(-n2cc(COc3ccc(F)cc3)nn2)c2cc(O)ccc2o1
Return: 4.62

Enquiry: Find the measured IC50 of O=c1cc(-n2cc(COc3ccccc3O)nn2)c2cc(Br)ccc2o1 and report it.
Return: 24.8

Enquiry: Note down IC50 recorded for CCc1ccc(OCc2cn(-c3cc(=O)oc4ccc(Br)cc34)nn2)cc1
Return: 12.7

Enquiry: Give reported IC50 value for O=c1cc(-n2cc(COc3ccccc3)nn2)c2cc(Br)ccc2o1
Return: 1.72
